study-system: α1β3 GABAAR WT (Homo sapiens, UniProt P14867+P28472)
Construct: inserted between the fourth and fifth residues of the mature peptide; photolabeling full-length heteropentameric GABAARs in native membranes
Sequence (P14867 28-456): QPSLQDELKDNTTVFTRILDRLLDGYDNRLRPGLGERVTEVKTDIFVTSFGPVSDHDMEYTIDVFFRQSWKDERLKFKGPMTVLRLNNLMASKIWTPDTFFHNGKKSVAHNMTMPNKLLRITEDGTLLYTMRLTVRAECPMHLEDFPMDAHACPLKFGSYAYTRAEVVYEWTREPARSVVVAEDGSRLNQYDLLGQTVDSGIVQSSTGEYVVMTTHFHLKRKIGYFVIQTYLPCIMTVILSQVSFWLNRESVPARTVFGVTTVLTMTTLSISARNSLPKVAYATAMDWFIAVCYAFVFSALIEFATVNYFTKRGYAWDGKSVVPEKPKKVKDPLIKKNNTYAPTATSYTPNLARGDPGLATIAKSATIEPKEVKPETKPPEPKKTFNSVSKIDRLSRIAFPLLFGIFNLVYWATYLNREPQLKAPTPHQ
Sequence (P28472 26-473): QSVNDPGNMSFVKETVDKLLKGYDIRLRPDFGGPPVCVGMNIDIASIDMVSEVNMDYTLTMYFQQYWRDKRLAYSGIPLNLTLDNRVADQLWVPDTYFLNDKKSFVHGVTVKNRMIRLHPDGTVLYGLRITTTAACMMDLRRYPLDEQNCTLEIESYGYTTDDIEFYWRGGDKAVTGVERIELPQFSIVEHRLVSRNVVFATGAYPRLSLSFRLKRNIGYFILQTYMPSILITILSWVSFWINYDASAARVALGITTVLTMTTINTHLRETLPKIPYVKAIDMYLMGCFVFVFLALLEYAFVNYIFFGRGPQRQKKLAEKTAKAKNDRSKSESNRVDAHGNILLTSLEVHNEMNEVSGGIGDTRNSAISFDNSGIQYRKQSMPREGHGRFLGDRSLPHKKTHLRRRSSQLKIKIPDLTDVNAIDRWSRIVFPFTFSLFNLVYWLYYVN
experiment: [3H]muscimol binding to HEK cell membranes (neurosteroid modulation and isotherms), WT receptor
settings: WT α1β3; 0.3 nM–1 μM [3H]muscimol; read-out: Kd of [3H]muscimol binding isotherm
pKd: −log10 of the molar value.
measured-metric: pKd

- molecule: "NCc1cc(=O)[nH]o1 [muscimol]"
  study-system: "α1β3 GABAAR WT (Homo sapiens, UniProt P14867+P28472)"
  measured-metric: "pKd"
  observed-measurement: 7.32

###

Entries and their measured Emax (% of control) of [3H]muscimol binding follow.
study-system: α1β3 GABAAR WT (Homo sapiens, UniProt P14867+P28472)
Construct: inserted between the fourth and fifth residues of the mature peptide; photolabeling full-length heteropentameric GABAARs in native membranes; expressed in transfected cells
Sequence (P14867 28-456): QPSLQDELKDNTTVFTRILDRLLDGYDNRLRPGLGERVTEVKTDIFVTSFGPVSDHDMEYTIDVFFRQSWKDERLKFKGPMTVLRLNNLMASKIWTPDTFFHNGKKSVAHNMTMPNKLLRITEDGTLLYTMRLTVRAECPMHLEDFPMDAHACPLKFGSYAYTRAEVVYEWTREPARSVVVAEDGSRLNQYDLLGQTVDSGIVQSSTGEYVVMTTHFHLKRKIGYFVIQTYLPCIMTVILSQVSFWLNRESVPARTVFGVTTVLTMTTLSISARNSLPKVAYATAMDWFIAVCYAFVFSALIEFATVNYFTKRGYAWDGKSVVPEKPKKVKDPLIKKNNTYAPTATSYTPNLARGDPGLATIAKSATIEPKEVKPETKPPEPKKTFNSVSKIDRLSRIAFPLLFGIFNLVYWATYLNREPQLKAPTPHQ
Sequence (P28472 26-473): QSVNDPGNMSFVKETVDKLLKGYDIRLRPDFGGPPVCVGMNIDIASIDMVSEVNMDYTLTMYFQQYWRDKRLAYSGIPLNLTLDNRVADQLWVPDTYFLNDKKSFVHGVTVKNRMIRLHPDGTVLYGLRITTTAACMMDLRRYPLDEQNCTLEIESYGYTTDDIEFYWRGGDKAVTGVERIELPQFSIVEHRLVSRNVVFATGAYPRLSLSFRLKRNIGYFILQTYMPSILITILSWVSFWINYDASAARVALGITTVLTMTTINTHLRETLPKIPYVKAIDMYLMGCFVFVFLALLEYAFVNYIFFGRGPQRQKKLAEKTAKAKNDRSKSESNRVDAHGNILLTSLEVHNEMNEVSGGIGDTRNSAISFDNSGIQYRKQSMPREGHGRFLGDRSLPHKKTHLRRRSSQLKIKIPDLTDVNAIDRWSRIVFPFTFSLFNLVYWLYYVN
experiment: [3H]muscimol binding to HEK cell membranes (neurosteroid modulation and isotherms), WT receptor
settings: WT α1β3; 3 nM [3H]muscimol; 100% means no effect
measured-metric: Emax (% of control) of [3H]muscimol binding

- compound: "CCOC(=O)c1cncn1[C@H](C)c1ccccc1 [Etomidate, etomidate]"
  observed-measurement: "331.1 ± 9.9 % of control"
- compound: "CC(=O)[C@H]1CC[C@H]2[C@@H]3CC[C@H]4C[C@H](O)CC[C@]4(C)[C@H]3CC[C@]12C"
  observed-measurement: "374.1 ± 11.1 % of control"
- compound: "C#CCCO[C@H]1CC[C@H]2[C@@H]3CC[C@H]4CC5(CC[C@]4(C)[C@H]3CC[C@]12C)N=N5"
  observed-measurement: "431.0 ± 19.5 % of control"
- compound: "C#CCCO[C@@H]1CC[C@H]2[C@@H]3CC[C@H]4CC5(CC[C@]4(C)[C@H]3CC[C@]12C)N=N5"
  observed-measurement: "142.5 ± 3.9 % of control"
- compound: "CC(=O)[C@H]1CC[C@H]2[C@@H]3CC[C@H]4C[C@@H](O)CC[C@]4(C)[C@H]3CC[C@]12C [3β5αP, epi-allopregnanolone]"
  observed-measurement: "195.6 ± 5.7 % of control"

###

study-system: α1(Q242L)β3 GABAAR (UniProt P28472+P62813, Q268L)
Sequence (P62813 28-455 Q268L, one chain of several): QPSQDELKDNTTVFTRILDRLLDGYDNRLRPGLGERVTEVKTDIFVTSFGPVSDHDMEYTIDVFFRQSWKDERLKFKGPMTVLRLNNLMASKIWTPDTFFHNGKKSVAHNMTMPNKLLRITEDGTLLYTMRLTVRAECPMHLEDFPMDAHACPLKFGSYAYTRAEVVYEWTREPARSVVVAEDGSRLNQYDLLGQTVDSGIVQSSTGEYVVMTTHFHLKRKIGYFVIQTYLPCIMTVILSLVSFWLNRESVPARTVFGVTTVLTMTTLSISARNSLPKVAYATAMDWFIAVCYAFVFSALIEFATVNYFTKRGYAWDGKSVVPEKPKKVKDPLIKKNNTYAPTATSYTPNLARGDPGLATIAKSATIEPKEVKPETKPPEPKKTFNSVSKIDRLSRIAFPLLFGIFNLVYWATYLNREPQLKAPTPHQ
experiment: [3H]muscimol binding to HEK cell membranes, intersubunit site mutant
settings: α1(Q242L)β3; read-out: Kd of [3H]muscimol binding isotherm
measured-metric: Kd (nM)

- compound: "NCc1cc(=O)[nH]o1 [muscimol]"
  observed-measurement: 44.3

###

study-system: α1β3 GABAAR (UniProt P28472+P62813)
Construct: expressed in transfected cells; host or cells: Xenopus laevis oocytes injected with cRNA (α1:β3 5:1)
Sequence (P62813 28-455, one chain of several): as the sequence (P62813 28-455 Q268L, one chain of several) above, with L241Q counted along it
experiment: Two-electrode voltage clamp in Xenopus laevis oocytes, WT receptor
Assay type: cell-based
settings: 0.3 μM GABA, 10 μM neurosteroid; oocytes

- compound: "C#CCCO[C@H]1CC[C@H]2[C@@H]3CC[C@H]4CC5(CC[C@]4(C)[C@H]3CC[C@]12C)N=N5"
  Potentiation of GABA-elicited currents: "absence of potentiation"
- compound: "C#CCCO[C@@H]1CC[C@H]2[C@@H]3CC[C@H]4CC5(CC[C@]4(C)[C@H]3CC[C@]12C)N=N5"
  Potentiation of GABA-elicited currents: "absence of potentiation"
- compound: "CC(=O)[C@H]1CC[C@H]2[C@@H]3CC[C@H]4C[C@@H](O)CC[C@]4(C)[C@H]3CC[C@]12C [3β5αP, epi-allopregnanolone]"
  Potentiation of GABA-elicited currents: "absence of potentiation"

###

study-system: α1β3 GABAAR WT (Homo sapiens, UniProt P14867+P28472)
Construct: inserted between the fourth and fifth residues of the mature peptide; photolabeling full-length heteropentameric GABAARs in native membranes; expressed in transfected cells
experiment: [3H]muscimol binding to HEK cell membranes (neurosteroid modulation and isotherms), WT receptor
pEC50: −log10 of the molar value.
measured-metric: pEC50

- compound: "CC(=O)[C@H]1CC[C@H]2[C@@H]3CC[C@H]4C[C@@H](O)CC[C@]4(C)[C@H]3CC[C@]12C [3β5αP, epi-allopregnanolone]"
  measured-metric: "pEC50"
  observed-measurement: 6.59
- compound: "CC(=O)[C@H]1CC[C@H]2[C@@H]3CC[C@H]4C[C@H](O)CC[C@]4(C)[C@H]3CC[C@]12C [3α5αP, allopregnanolone]"
  measured-metric: "pEC50"
  observed-measurement: 6.62

###

study-system: α1(Q242L)β3 GABAAR (UniProt P28472+P62813, Q268L)
experiment: [3H]muscimol binding to HEK cell membranes, intersubunit site mutant
Set-up: expressed in transfected cells; host or cells: HEK293S GnTI- (ATCC CRL-3022), transient; species or system rat α1, human β3
settings: α1(Q242L)β3; 3 nM [3H]muscimol; read-out: EC50 for modulation of [3H]muscimol binding
measured-metric: EC50 (µM)

- chemical-smiles: "C#CCCO[C@H]1CC[C@H]2[C@@H]3CC[C@H]4CC5(CC[C@]4(C)[C@H]3CC[C@]12C)N=N5"
  observed-measurement: 2.2
